Target: AKT1 E17K (Homo sapiens, UniProt P31749, E17K)
Sequence (P31749 whole entry E17K): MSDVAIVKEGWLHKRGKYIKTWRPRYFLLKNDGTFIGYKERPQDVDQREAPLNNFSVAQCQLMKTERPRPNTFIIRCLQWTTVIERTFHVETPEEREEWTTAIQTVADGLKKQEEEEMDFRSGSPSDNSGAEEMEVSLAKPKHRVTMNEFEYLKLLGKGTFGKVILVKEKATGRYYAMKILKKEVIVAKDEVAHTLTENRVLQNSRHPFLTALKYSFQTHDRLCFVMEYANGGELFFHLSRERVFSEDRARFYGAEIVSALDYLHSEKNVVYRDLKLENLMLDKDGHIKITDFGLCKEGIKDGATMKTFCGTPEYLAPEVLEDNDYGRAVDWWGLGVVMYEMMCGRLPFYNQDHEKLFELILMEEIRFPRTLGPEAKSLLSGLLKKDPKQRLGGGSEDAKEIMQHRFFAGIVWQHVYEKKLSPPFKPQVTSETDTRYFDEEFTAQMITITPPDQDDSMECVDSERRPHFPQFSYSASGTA
Test: Live cell AKT1 E17K target engagement by NanoBRET competitive probe displacement
Details: HEK293 cells transfected with kinase-NanoLuciferase fusion, 2 h at 37° C.
So I've got a bunch of molecules here, and I need their IC50 values.
Numbers only, in µM.

Molecule	Data value
C=CC(=O)N1CCC(N[C@H]2CCc3cc(-n4c(-c5cccnc5N)nc5ccc(C(C)C)nc54)ccc32)CC1	0.0304

For each of the molecules below, note its IC50.
1. C=CC(=O)N1C[C@H]2C[C@@H]1CC2N[C@H]1CCc2cc(-n3c(-c4cccnc4N)nc4ccc(-n5cccn5)nc43)ccc21 (single isomer, unassigned) [Example 138]
2. C=CC(=O)N1CCc2c(C(=O)N[C@H]3CCc4cc(-n5c(-c6cccnc6N)nc6ccc(-n7cccn7)nc65)ccc43)cccc21

Return:
0.744
0.0328

====

Biological target: AKT1 E17K (Homo sapiens, UniProt P31749, E17K)
Experiment: Live cell AKT1 E17K target engagement by NanoBRET competitive probe displacement
Conditions: HEK293 cells transfected with kinase-NanoLuciferase fusion, 2 h at 37° C.
For each entry below, report its pIC50 value.
Numbers only, as −log10 of the molar value.

Molecule	pIC50
C=CC(=O)N(C)CC(=O)N[C@H]1CCc2cc(-n3c(-c4cccnc4N)nc4ccc(-n5cccn5)nc43)ccc21	6.02
C=CC(=O)N1CCC(N[C@@H]2c3ccc(-n4c(-c5cccnc5N)nc5ccc(-n6cccn6)nc54)cc3CC2F)C(C)C1 (single isomer, unassigned) [Example 288]	7.42
C=CC(=O)N1C[C@H]2C[C@@H](C1)C2N[C@H]1CCc2cc(-n3c(-c4cccnc4N)nc4ccc(-n5cccn5)nc43)ccc21 (single isomer, unassigned) [Example 60]	6.39
C=CC(=O)N1CCC(N[C@@H]2c3ccc(-n4c(-c5ccccc5)nc5ccc(-n6cccn6)nc54)cc3CC2F)CC1C(F)F (single isomer, unassigned) [Example 329]	8.27
C=CC(=O)N1CC2CC[C@H]1CC2N[C@H]1CCc2cc(-n3c(-c4cccnc4N)nc4ccc(-n5cccn5)nc43)ccc21 (single isomer, unassigned) [Example 133]	7.87

Please supply pIC50 for each of the following items, keeping them in order.
1. C=CS(=O)(=O)N1CCC(N[C@H]2CCc3cc(-n4c(-c5cccnc5N)nc5ccc(-n6cccn6)nc54)ccc32)CC1
2. C=CC(=O)Nc1cccc(C)c1C(=O)N[C@H]1CCc2cc(-n3c(-c4cccnc4N)nc4ccc(-n5cccn5)nc43)ccc21
3. C=CC(=O)N1CCC(N[C@H]2CCc3cc(-n4c(-c5cccnc5N)nc5ccc(C6CC6)nc54)ccc32)C[C@H]1C (single isomer, unassigned) [Example 210]
4. C=CC(=O)Nc1c(F)cccc1C(=O)N[C@H]1CCc2cc(-n3c(-c4cccnc4N)nc4ccc(-n5cccn5)nc43)ccc21

Return:
[7.54, 7.10, 7.77, 7.31]

====

Target: AKT2 (Homo sapiens, UniProt P31751)
Sequence (P31751 whole entry): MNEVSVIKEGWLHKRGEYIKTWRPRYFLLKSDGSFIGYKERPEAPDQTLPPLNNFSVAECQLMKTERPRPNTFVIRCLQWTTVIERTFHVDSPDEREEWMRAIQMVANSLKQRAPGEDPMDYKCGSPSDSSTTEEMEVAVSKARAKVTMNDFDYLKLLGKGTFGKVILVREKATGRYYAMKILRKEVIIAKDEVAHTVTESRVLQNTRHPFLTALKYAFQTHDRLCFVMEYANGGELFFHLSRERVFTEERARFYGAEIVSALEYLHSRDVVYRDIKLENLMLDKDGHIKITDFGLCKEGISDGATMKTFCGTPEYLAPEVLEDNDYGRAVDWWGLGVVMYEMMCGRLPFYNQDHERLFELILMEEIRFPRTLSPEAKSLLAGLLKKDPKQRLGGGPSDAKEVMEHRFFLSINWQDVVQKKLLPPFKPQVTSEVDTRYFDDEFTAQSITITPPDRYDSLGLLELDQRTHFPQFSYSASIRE
Experiment: Live cell AKT2 target engagement by NanoBRET competitive probe displacement
Conditions: HEK293 cells transfected with kinase-NanoLuciferase fusion, 2 h at 37° C.
I'd be grateful if you could share measured IC50 for these entries.
Numbers only, in nM.

The cases that follow already have their IC50 on record.
Molecule	Endpoint unit	IC50
C=CC(=O)N1CCN(NC2CCc3cc(-n4c(-c5cccnc5N)nc5ccc(-n6cccn6)nc54)ccc32)CC1 (single isomer, unassigned) [Example 148]	nM	61
C=CC(=O)N1CCC(N[C@H]2CCc3cc(-n4c(-c5cccnc5N)nc5ccc(-n6cccn6)nc54)ccc32)C(F)C1 (single isomer, unassigned) [Example 104]	nM	92.7

For the 4 molecules below, give their IC50 values.
1. C=CC(=O)N1CC2(CCC(N[C@H]3CCc4cc(-n5c(-c6cccnc6N)nc6ccc(-n7cccn7)nc65)ccc43)C2)C1 (single isomer, unassigned) [Example 92]
2. C=CC(=O)N1CCC(N[C@H]2CCc3cc(-n4c(-c5cccnc5N)nc5ccc(-n6cccn6)nc54)ccc32)CC1CC#N (single isomer, unassigned) [Example 326]
3. C=CC(=O)N1CCC(N[C@@H]2c3ccc(-n4c(-c5cccnc5N)nc5ccc(-n6cccn6)nc54)cc3CC2F)C[C@H]1C (single isomer, unassigned) [Example 146]
4. C=CC(=O)N1CCC(N[C@H]2CCc3cc(-n4c(-c5cccnc5N)nc5ccc(-n6ccc(Cl)n6)nc54)ccc32)CC1

Return:
[58.8, 29.3, 1580, 38.5]

====

Target: AKT1 WT (Homo sapiens)
Sequence (P31749 whole entry): as the sequence (P31749 whole entry E17K) above, with K17E counted along it
Experiment: Live cell AKT1 WT target engagement by NanoBRET competitive probe displacement
Settings: HEK293 cells transfected with kinase-NanoLuciferase fusion, 2 h at 37° C.
Dear colleague, classification is by IC50, with ranges listed here: range A (below 40 nM), range B (40 nM to below 300 nM), range C (300 nM or more)

Previously resolved entries follow.
Compound	Cat
C=CC(=O)N1CCC(N[C@H]2CCc3cc(-n4c(-c5cccnc5N)nc5ccc(N6CCC(F)CC6)nc54)ccc32)CC1 [Example 238]	range C
C=CC(=O)N1CCC(N[C@H]2CCc3cc(-n4c(-c5cccnc5N)nc5ccc(-n6ccc(C(C)C)n6)nc54)ccc32)CC1 [Example 281]	range B
C=CC(=O)N1CC2(CC(N[C@H]3CCc4cc(-n5c(-c6cccnc6N)nc6ccc(-n7cccn7)nc65)ccc43)C2)C1 [Example 31]	range A

Enquiry: Class (by measured IC50) for C=CC(=O)N1CCC(NC2c3ccc(-n4c(-c5cccnc5N)nc5ccc(-n6cccn6)nc54)cc3CC2O)CC1 (single isomer, unassigned) [Example 151]
Return: range C

Enquiry: Please let me know in which category the item C=CC(=O)N1CCC(N[C@H]2CCc3cc(-n4c(-c5cccnc5N)nc5ccc(-c6ncc(C)o6)nc54)ccc32)CC1 [Example 255] belongs.
Return: range C

Enquiry: For the record C=CC(=O)N1CCC(N[C@H]2CCc3cc(-n4c(-c5cccnc5N)nc5ccc(-n6cccn6)nc54)ccc32)C(C#N)C1 (single isomer, unassigned) [Example 156] , report the class its IC50 corresponds to.
Return: range A

Enquiry: Assign a bin to C=CC(=O)N1CC2(CCC(N[C@H]3CCc4cc(-n5c(-c6cccnc6N)nc6ccc(-n7cccn7)nc65)ccc43)C2)C1 (single isomer, unassigned) [Example 92]
Return: range A

Enquiry: Lab note: which band did C=C(C)C(=O)Nc1ccccc1C(=O)N[C@H]1CCc2cc(-n3c(-c4cccnc4N)nc4ccc(-n5cccn5)nc43)ccc21 [Example 17] land in?
Return: range B

====

Target: AKT1 E17K (Homo sapiens, UniProt P31749, E17K)
Experiment: Live cell AKT1 E17K target engagement by NanoBRET competitive probe displacement
Settings: HEK293 cells transfected with kinase-NanoLuciferase fusion, 2 h at 37° C.
Reported property: IC50

Compound	Subject of test	IC50
C=CC(=O)N1CC2CC1CCC2N[C@H]1CCc2cc(-n3c(-c4cccnc4N)nc4ccc(-n5cccn5)nc43)ccc21 (stereo partly drawn)	AKT1 E17K (Homo sapiens, UniProt P31749, E17K)	0.0286 µM
C=CC(=O)N1CC2CC[C@@H]1CC2N[C@H]1CCc2cc(-n3c(-c4cccnc4N)nc4ccc(-n5cccn5)nc43)ccc21 (single isomer, unassigned) [Example 131]	AKT1 E17K (Homo sapiens, UniProt P31749, E17K)	> 1 µM
C=CC(=O)N1CCCC(c2cn([C@H]3CCc4cc(-n5c(-c6cccnc6N)nc6ccc(-n7cccn7)nc65)ccc43)nn2)C1 (single isomer, unassigned) [Example 168]	AKT1 E17K (Homo sapiens, UniProt P31749, E17K)	0.0326 µM
C=CC(=O)N1CCC(N[C@@H]2c3ccc(-n4c(-c5cccnc5N)nc5ccc(C6CC6)nc54)cc3CC2F)CC1 (single isomer, unassigned) [Example 202]	AKT1 E17K (Homo sapiens, UniProt P31749, E17K)	0.111 µM
C=CC(=O)N1CCC(N[C@H]2CCc3cc(-n4c(-c5cccnc5N)nc5ccc(N6CCN(C)CC6)nc54)ccc32)CC1	AKT1 E17K (Homo sapiens, UniProt P31749, E17K)	0.15 µM
C=CC(=O)N1CCC(N[C@H]2CCc3cc(-n4c(-c5cccnc5N)nc5ccc(-n6cc(F)cn6)nc54)ccc32)CC1	AKT1 E17K (Homo sapiens, UniProt P31749, E17K)	0.0109 µM
C=CC(=O)N1CCC(N[C@@H]2c3ccc(-n4c(-c5cccnc5N)nc5ccc(-n6cccn6)nc54)cc3CC2F)CC1C(F)F (single isomer, unassigned) [Example 304]	AKT1 E17K (Homo sapiens, UniProt P31749, E17K)	0.0116 µM
C=CC(=O)N1CCc2cccc(C(=O)N[C@H]3CCc4cc(-n5c(-c6cccnc6N)nc6ccc(-n7cccn7)nc65)ccc43)c2C1	AKT1 E17K (Homo sapiens, UniProt P31749, E17K)	0.0126 µM

Parameter requested: IC50. Apply to each item below.
1. C=CC(=O)N1CCC(N[C@H]2CCc3cc(-n4c(-c5cccnc5N)nc5c(C#N)cc(-n6cccn6)nc54)ccc32)CC1
2. C=CC(=O)Nc1ccccc1C(=O)N[C@H]1CCc2cc(-n3c(-c4cccnc4N)nc4ccc(-n5cccn5)nc43)ccc21
3. C=CC(=O)N1CCC(N(CCOC)[C@H]2CCc3cc(-n4c(-c5cccnc5N)nc5ccc(-n6cccn6)nc54)ccc32)CC1
4. C=CC(=O)N1CCC(N[C@H]2CCc3cc(-n4c(-c5cccnc5N)nc5ccc(-n6cccn6)nc54)ccc32)C(OC)C1 (single isomer, unassigned) [Example 116]

Return:
0.0143 µM
0.0122 µM
> 1 µM
0.339 µM

// data source = patent US12570655B2
